# protocol.notes: Selectivity ratio of IC50 for human WI-38 cells to IC50 for human 786-0 cells
# Assay type: ADME, cell-based
# conditions.used: WI-38 cells versus 786-0 cells, read-out: Ratio IC50

smiles.data	selectivity ratio
CN1CCN(CCCNc2cc3c4c(c(NCCCN5CCN(C)CC5)cc5c4c2C(=O)N(CC2CCOCC2)C5=O)C(=O)N(CC2CCOCC2)C3=O)CC1	10

* * *

Listed here: items and their measured ΔTm.
# Tested on: unidentified
# protocol.notes: Stabilization of HSP90a promoter sequence 5'-FAM-d(GGGCCAAAGGGAAGGGGTGGG)-TAMRA-3' (unknown origin) assessed as melting temperature at 1 uM by FRET assay

compound	ΔTm
COCCCN1C(=O)c2cc(NCCCN3CCN(C)CC3)c3c4c(cc(NCCCN5CCN(C)CC5)c(c24)C1=O)C(=O)N(CCCOC)C3=O	29 °C
CN1CCN(CCCNc2cc3c4c(c(NCCCN5CCN(C)CC5)cc5c4c2C(=O)N(CC2CCCO2)C5=O)C(=O)N(CC2CCCO2)C3=O)CC1 (racemic)	27.1 °C
CN1CCN(CCCNc2cc3c4c(c(NCCCN5CCN(C)CC5)cc5c4c2C(=O)N(CCCN2CCOCC2)C5=O)C(=O)N(CCCN2CCOCC2)C3=O)CC1	33.1 °C
